- Assay overview: PK of compound of Formula (Ia) after single subcutaneous dose of solution formulations in Wistar Han rats
- Assay type: in vivo
- Run conditions: male, Wistar Han, rat, plasma, sc, 50 mg/kg, 3.00 h; individual rats; SC 50 mg/kg; solution V, 300 mg/mL
- Procedure: Formulations containing the compound of Formula (Ia), or a pharmaceutically acceptable salt thereof, were prepared as solutions and optionally administered subcutaneously or intramuscularly to rats, rabbits, and/or dogs. A solution of about 400 mg/mL of the compound of Formula (Ia) having 19.14 w/w % water, 40.66 w/w % PEG 300, 35.20 w/w % of a sodium salt of a compound of Formula (Ia), and 5.00% ethanol was prepared. […]
Property name: concentration at 3 h
Could you kindly put the unit after your number?

Task: So what does the record say about concentration at 3 h for CC(C)(C#Cc1ccc(-c2ccc(Cl)c3c(NS(C)(=O)=O)nn(CC(F)(F)F)c23)c([C@H](Cc2cc(F)cc(F)c2)NC(=O)Cn2nc(C(F)(F)F)c3c2C(F)(F)[C@@H]2C[C@H]32)n1)S(C)(=O)=O ?
Output: 141 nM
